The following binders are shown together with reported koff values.
Molecular target: T1, human IL4 (human, UniProt P05112 25-153, biotinylated in the SPR and competition assays (sites not given))
T1 construct: Peprotech #200-04, mature protein produced in E. coli; also called hIL4; Interleukin 4
T1 sequence: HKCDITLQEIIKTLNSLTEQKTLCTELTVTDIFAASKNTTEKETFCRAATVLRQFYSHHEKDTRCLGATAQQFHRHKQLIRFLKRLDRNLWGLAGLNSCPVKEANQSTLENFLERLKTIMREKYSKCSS
Assay: SPR ProteOn, biotin-IL4 on neutravidin chip, 1:1 fit

Here are 5 binders together with their reported answers.
C06_13A10 (designed binder, ankyrin repeat protein; His-tagged, IMAC-purified) DLGKKLLEAARAGQDDEVRILMANGADVNVSDRIGNTPLHLAAVYVHLEIVEVLLKNGADVNALDDDGLTPLHLAAADGHLEIVEVLLKHGADVNATDSHVWTPLHLAAFFGHLEIVEVLLKYGADVNAQDKFGKTAFDISIDNGNEDLAEILQKLN    0.000149 s⁻¹
C06_19C3 (designed binder, ankyrin repeat protein; His-tagged, IMAC-purified) DLGKKLLEAARAGQDDEVRILMANGADVNATDDWGDTLLHLAATDGHLEIVEVLLKNGADVNAIDAMGMTPLHLAAVYGYLEIVEVLLKNGADVNAMDFSGFTPLHLAAFSGHLEIVEVLLKYGADVNAQDKFGKTAFDISIDNGNEDLAEILQKLN    9.73e-05 s⁻¹
C06_26H2 (designed binder, ankyrin repeat protein; His-tagged, IMAC-purified) DLGKKLLEAARAGQDDEVRILMANGADVNAYDSSGDTPLHVAAIDGHLEIVEVLLKHGADVNASDASGDTPLHLAADFGHLKIVEVLLKHGADVNAEDMIGITPLHLAAYNGHLEIVEVLLKNGADVNASDVHGFTPLHLAAFIGHLGIVEVLLKYDADVNAQDKFGKTAFDISIDNRNEDLAEILQKLN    0.000247 s⁻¹
C06_28E5 (designed binder, ankyrin repeat protein; His-tagged, IMAC-purified; also called benchmark AR protein) DLGKKLLEAARAGQDDEVRILMANGADVNAADDSGITPLHLAAEDGHLEIVEVLLKYGADVNAQDNLGDTPLHLAAWTGHLEIVEVLLKNGADVNAYDISGITPLHLAAFYGHLEIVEVLLKHGADVNAQDKFGKTAFDISIDNGNEDLAEILQKLN    4.61e-05 s⁻¹
C06_42A11 (designed binder, ankyrin repeat protein; His-tagged, IMAC-purified) DLGKKLLEAASVGQDDEVHILMANGADVNATDAWGLTPLHLAALLGHLEIVEVLLKHGADVNAHDETGFTPLHLAAVEGHLEIVEVLLKYGADVNASDILGRTPLHLAANFGHLEIVEVLLKHGADVNAQDKFGKTAFDISIDNGNEDLAEILQKLN    5.43e-06 s⁻¹

Input line: Could you tell me which koff is on file for C06_17A11 (designed binder, ankyrin repeat protein; His-tagged, IMAC-purified) DLGKKLLEAARAGQDDEVRILMANGADVNAIDEWGDTPLHLAAIEGHLEIVEVLLKYGADVNASDAMGMTPLHLAAVYGYLEIVEVLLKNGADVNAMDFSGFTPLHLAAFSGHLEIVEVLLKYGADVNAQDKFGKTAFDISIDNGNEDLAEILQKLN ?
Output line: 0.00014 s⁻¹

Input line: Could you tell me which koff is on file for C06_28D4 (designed binder, ankyrin repeat protein; His-tagged, IMAC-purified) DLGKELLEAASAGQDDEVHILMANGADVNAVDHDGFTPLHLAAADGHLEIVEVLLKHGADVNADDNFGWTPLHLAAFFGHLEIVEVLLKHGADVNAKDQTGLTPLHLAAVDGHLEIVEVLLKNGADVNAQDKFGKTAFDISIDNGNEDLAEILQKLN ?
Output line: 0.000138 s⁻¹
